target: SARS-CoV-2 3CLpro (Severe acute respiratory syndrome coronavirus 2 (2019-nCoV) (SARS-CoV-2))
value.kind: IC50 (nM)
Answers are plain numbers, in nM.

[2H]C([2H])(OC(=O)N[C@@H](CC(C)C)C(=O)N[C@@H](C[C@@H]1CCNC1=O)C(=O)C(=O)NCc1ccccc1)c1ccccc1 [Compound 5] | 1310

Quick one: give me IC50 for each item below, same order please.
1. [2H]C([2H])(OC(=O)N[C@@H](CC(C)C)C(=O)N[C@@H](C[C@@H]1CCNC1=O)C(OC(C)=O)S(=O)(=O)[O-])c1ccccc1.[Na+] (some centres unmarked) [Compound 3]
2. [2H]C([2H])(OC(=O)N[C@@H](CC(C)C)C(=O)N[C@@H](C[C@@H]1CCNC1=O)C(OC(=O)CCCCC)S(=O)(=O)[O-])c1ccccc1.[Na+] (some centres unmarked) [Compound 4]
3. [2H]c1c([2H])c([2H])c(COC(=O)N[C@@H](CC(C)C)C(=O)N[C@@H](C[C@@H]2CCNC2=O)C(OC(=O)CCCCC)S(=O)(=O)[O-])c([2H])c1[2H].[Na+] (some centres unmarked) [Compound 8]
4. [2H]c1c([2H])c([2H])c(C([2H])([2H])OC(=O)N[C@@H](CC(C)C)C(=O)N[C@@H](C[C@@H]2CCNC2=O)C(OC(=O)CCCCC)S(=O)(=O)[O-])c([2H])c1[2H].[Na+] (some centres unmarked) [Compound 11]

Response given:
710
800
680
770

---

Hi there, I'd appreciate the recorded CC50 at 72 h for every entry that follows.
Test: Nonspecific cytotoxic effects (CytoTox 96 assay)
Format: cell-based
Conditions: African green monkey (Vero E6) and cat (CRFK); Vero E6 and CRFK cells, 72 hr
Experimental: Nonspecific cytotoxic effects. […] Confluent cells grown in 96-well plates were incubated with various concentrations (1 to 100 μM) of each compound for 72 hr. Cell cytotoxicity was measured by a CytoTox 96 nonradioactive cytotoxicity assay kit (Promega, Madison, WI), and the CC50 values were calculated using a variable slope by GraphPad Prism software (Table 2).

Previously resolved entries follow.
[2H]c1c([2H])c([2H])c(C([2H])([2H])OC(=O)N[C@@H](CC(C)C)C(=O)N[C@H](C=O)C[C@@H]2CCNC2=O)c([2H])c1[2H] | > 100 µM
[2H]C([2H])(OC(=O)N[C@@H](CC(C)C)C(=O)N[C@@H](C[C@@H]1CCNC1=O)C(OC(C)=O)S(=O)(=O)[O-])c1ccccc1.[Na+] (stereo partly shown) | > 100 µM
[2H]C([2H])(OC(=O)N[C@@H](CC(C)C)C(=O)N[C@@H](C[C@@H]1CCNC1=O)C(=O)C(=O)NCc1ccccc1)c1ccccc1 | > 100 µM

Here's the next entry for you.
// [2H]c1c([2H])c([2H])c(C([2H])([2H])OC(=O)N[C@@H](CC(C)C)C(=O)N[C@@H](C[C@@H]2CCNC2=O)C(OC(=O)CCCCC)S(=O)(=O)[O-])c([2H])c1[2H].[Na+] (stereo partly shown) : CC50 at 72 h value = > 100 µM

---

system: Vero E6 and CRFK cells; experiment: Nonspecific cytotoxic effects (CytoTox 96 assay); format: cell-based; conditions: Vero E6 and CRFK cells, 72 hr
value.kind: CC50

For the compound CC(C)C[C@H](NC(=O)OCc1ccccc1)C(=O)N[C@@H](C[C@@H]1CCNC1=O)C(O)S(=O)(=O)O (stereo partly shown) [Compound 10] , the measured CC50 on Vero E6 and CRFK cells was > 100 µM
